# system.tested: GST-Xa-hAAK1 (Homo sapiens, UniProt Q2M2I8)
# Construct: made in house
# Sequence (Q2M2I8 whole entry): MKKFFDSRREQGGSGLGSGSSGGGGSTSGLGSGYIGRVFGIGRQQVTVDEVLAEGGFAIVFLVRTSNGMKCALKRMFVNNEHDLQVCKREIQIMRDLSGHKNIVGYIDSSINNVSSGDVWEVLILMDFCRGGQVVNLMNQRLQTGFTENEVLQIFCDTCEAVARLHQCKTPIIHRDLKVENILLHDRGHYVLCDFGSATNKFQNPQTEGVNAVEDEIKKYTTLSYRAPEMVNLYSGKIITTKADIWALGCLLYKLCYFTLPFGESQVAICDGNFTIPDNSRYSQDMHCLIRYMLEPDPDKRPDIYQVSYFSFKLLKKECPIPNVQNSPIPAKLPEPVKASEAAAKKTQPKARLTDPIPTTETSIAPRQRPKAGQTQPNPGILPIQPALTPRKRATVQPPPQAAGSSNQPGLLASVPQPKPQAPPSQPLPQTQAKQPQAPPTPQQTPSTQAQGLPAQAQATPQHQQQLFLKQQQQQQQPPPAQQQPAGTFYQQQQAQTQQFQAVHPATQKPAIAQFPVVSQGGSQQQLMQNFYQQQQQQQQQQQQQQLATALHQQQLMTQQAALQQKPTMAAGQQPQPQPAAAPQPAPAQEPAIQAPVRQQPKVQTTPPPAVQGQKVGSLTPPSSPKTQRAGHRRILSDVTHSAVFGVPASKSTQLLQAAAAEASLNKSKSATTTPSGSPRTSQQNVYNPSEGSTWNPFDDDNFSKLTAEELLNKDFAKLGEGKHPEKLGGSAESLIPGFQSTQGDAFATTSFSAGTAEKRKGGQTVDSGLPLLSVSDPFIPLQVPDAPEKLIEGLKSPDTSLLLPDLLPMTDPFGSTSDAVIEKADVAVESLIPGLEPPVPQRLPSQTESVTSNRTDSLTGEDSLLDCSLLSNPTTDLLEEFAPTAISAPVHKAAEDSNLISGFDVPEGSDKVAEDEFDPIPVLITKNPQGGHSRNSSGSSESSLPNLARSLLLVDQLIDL
# protocol.details: AAK1 kinase assay
# Format: biochemical
# particulars: ATP 22 μM, 3 hours at room temperature
# Experimental: The assays were performed in U-bottom 384-well plates. […] The reactions were initiated by the combination of bacterially expressed, GST-Xa-hAAK1 with substrates and test compounds. […] The reactions were analyzed on the Caliper LabChip 3000 (Caliper, Hopkinton, Mass.) by electrophoretic separation of the fluorescent substrate and phosphorylated product. […] Compounds were dissolved at 10 mM in dimethylsulfoxide (DMSO) and evaluated at eleven concentrations. […]
Recorded IC50 by entry
Please provide the amount together with its unit, number first.

# count of solved cases: 6
For reference, reported IC50 for Cc1nccc2c1c(=O)n(C)c1cc(OC[C@@H](N)CC(C)C)c(C(C)(C)O)cc21 [Example 35] stands at 114 nM

For reference, reported IC50 for CC(C)C[C@H](N)COc1ccc2c(c1)[nH]c(=O)c1cnccc12 [Example 1] stands at 5.7 nM

For reference, reported IC50 for Cc1nccc2c1c(=O)n(C)c1cc(OC[C@@H](N)CC(C)C)c(C(C)O)cc21 (single isomer, unassigned) [Example 30] stands at 1.7 nM

For reference, reported IC50 for CC(C)C[C@H](N)COc1cc2c(cc1C(C)C)c1ccncc1c(=O)n2C [Example 47] stands at 4.5 nM

For reference, reported IC50 for CC(C)OC[C@H](N)COc1ccc2c3ccncc3c(=O)n(C)c2c1 [Example 53] stands at 119 nM

For reference, reported IC50 for CC(C)C[C@H](N)COc1cc2c(cc1O)c1ccncc1c(=O)n2C [Example 7] stands at 11 nM

More entries:
For reference, reported IC50 for Cc1nccc2c1c(=O)n(C)c1cc(OC[C@H](CC(C)C)N(C)C)ccc21 [Example 40] stands at 123 nM

For reference, reported IC50 for CC(C)C[C@H](N)COc1ccc2c3ccncc3c(=O)n(CCO)c2c1 [Example 44] stands at 41 nM

For reference, reported IC50 for Cc1nccc2c1c(=O)n(C)c1cc(OC[C@@H](N)CC3CCC3)ccc21 [Example 22] stands at 12 nM

For reference, reported IC50 for CC(C)C[C@H](N)COc1ccc2c3ccnc(N)c3c(=O)n(C)c2c1 [Example 17] stands at 3 nM

For reference, reported IC50 for Cc1nccc2c1c(=O)n(C)c1cc(OCC(C)(N)CC(C)C)ccc21 (centres unmarked) [Example 32] stands at 3.9 nM

For reference, reported IC50 for Cc1nccc2c1c(=O)[nH]c1c(F)c(OC[C@@H](N)CC(C)C)ccc12 [Example 82] stands at 150 nM

For reference, reported IC50 for COc1cc2c3ccnc(C)c3c(=O)n(C)c2cc1OCC(C)(N)CC(C)C (centres unmarked) [Example 34] stands at 5.9 nM

For reference, reported IC50 for Cc1nccc2c1c(=O)n(C)c1cc(OC[C@@H](N)CC3CC3)c(Cl)cc21 [Example 23] stands at 0.12 nM

For reference, reported IC50 for COCCn1c(=O)c2c(C)nccc2c2ccc(OC[C@@H](N)CC(C)C)cc21 [Example 80] stands at 134 nM

For reference, reported IC50 for CC(C)C[C@H](N)COc1ccc2c3ccncc3c(=O)n(Cc3ccccc3)c2c1 [Example 11] stands at 73 nM

All figures here come from patent US8901305B2.
